# target entity: HLA-DRB4*0101 (human)
# assay protocol: competition binding
# experimental setup: modification not given
For each entry below, report its pIC50 value.
Entry type: numeric. Quantity: pIC50, the -log10 of concentration in molar units.

Request: # input binder: AEITLTWQRDGEDQT [p42] ; wanted: its pIC50
Result: 5.34

Request: # input binder: PRFIAVGYVDDTQFV [p4] ; wanted: its pIC50
Result: 4.34
